B1: Chromodomain-helicase-DNA-binding protein 5, residues 338 to 390; numbered along this chain, Q8TDI0 (parent)
chain: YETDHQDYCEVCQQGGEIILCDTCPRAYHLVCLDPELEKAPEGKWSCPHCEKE

Variants of: B1
experimental_details: abundance fitness (aPCA) (normalised: wild type 0, dead -1); higher = more abundant; growth selection in yeast, the domain comes from the species named
condition_details: Homo sapiens
# abundance fitness values compiled below
No unit in the answer, only the number.

Ask: Value lookup for abundance fitness; key = C50S
Reply: -0.416

Ask: Value lookup for abundance fitness; key = C24P
Reply: -0.437

Ask: Value lookup for abundance fitness; key = G43K
Reply: 0.057

***
Ask: Value lookup for abundance fitness; key = G16Q
Reply: 0.183

Ask: Value lookup for abundance fitness; key = C50A
Reply: -0.503

Ask: Value lookup for abundance fitness; key = E17T
Reply: -0.109

Ask: Value lookup for abundance fitness; key = E17S
Reply: -0.354

Ask: Value lookup for abundance fitness; key = E42D
Reply: -0.013

Ask: Value lookup for abundance fitness; key = E51K
Reply: 0.031

Ask: Value lookup for abundance fitness; key = E51P
Reply: -0.367
